- PROTOCOL: Zeta-potential measurement (dynamic light scattering)
- Format: physicochemical
- RECORDED CONDITIONS: derived count rate of scattered light during zeta-potential measurements
Where a SMILES comes first, the peptide text is derived from it. The star is where a group is joined. Fmoc = O=C(OCC1c2ccccc2-c2ccccc21)*; Lauroyl = CCCCCCCCCCCC(=O)*
REPORTED ENDPOINT: Count Rate / kcps (kcps)

INSERT INTO assay_data (compound, reported_endpoint, quantitative_result) VALUES
  ('CC(C)[C@H](NC(=O)OCC1c2ccccc2-c2ccccc21)C(=O)N[C@H](C(=O)N[C@H](C(=O)N[C@@H](C)C(=O)N[C@@H](C)C(=O)N[C@@H](C)C(=O)N[C@@H](CCCCN)C(=O)N[C@@H](CCCCN)C(=O)N[C@@H](CCCCN)C(N)=O)C(C)C)C(C)C [Pat12] (Fmoc-VVVAAAKKK-NH2)', 'Count Rate / kcps', 509.5),
  ('CCCCCCCCCCCC(=O)N[C@H](C(=O)N[C@H](C(=O)N[C@H](C(=O)N[C@@H](C)C(=O)N[C@@H](C)C(=O)N[C@@H](C)C(=O)N[C@@H](CCCCN)C(=O)N[C@@H](CCCCN)C(=O)N[C@@H](CCCCN)C(N)=O)C(C)C)C(C)C)C(C)C [Pat7] (Lauroyl-VVVAAAKKK-NH2)', 'Count Rate / kcps', 3558.1);

----------
- PROTOCOL: Zeta-potential measurement (dynamic light scattering)
- Format: physicochemical
Where a SMILES comes first, the peptide text is derived from it. The star is where a group is joined. X1 = CC/C=C\C/C=C\C/C=C\C/C=C\C/C=C\CCCC(=O)*; Palmitoyl = CCCCCCCCCCCCCCCC(=O)*; Lauroyl = CCCCCCCCCCCC(=O)*; Nonanoyl = CCCCCCCCC(=O)*
REPORTED ENDPOINT: Zeta-Potential / mV (mV)

INSERT INTO assay_data (molecule, reported_endpoint, measurement_unit, quantitative_result) VALUES
  ('CCCCCCCCCCCC(=O)N[C@H](C(=O)N[C@H](C(=O)N[C@H](C(=O)N[C@@H](C)C(=O)N[C@@H](C)C(=O)N[C@@H](C)C(=O)N[C@@H](CCCCN)C(=O)N[C@@H](CCCCN)C(=O)N[C@@H](CCCCN)C(N)=O)C(C)C)C(C)C)C(C)C [Pat7] (Lauroyl-VVVAAAKKK-NH2)', 'Zeta-Potential / mV', 'mV', 19.4),
  ('CC/C=C\C/C=C\C/C=C\C/C=C\C/C=C\CCCC(=O)N[C@H](C(=O)N[C@H](C(=O)N[C@H](C(=O)N[C@@H](C)C(=O)N[C@@H](C)C(=O)N[C@@H](C)C(=O)N[C@@H](CCCCN)C(=O)N[C@@H](CCCCN)C(=O)N[C@@H](CCCCN)C(N)=O)C(C)C)C(C)C)C(C)C [Pat10] (X1-VVVAAAKKK-NH2)', 'Zeta-Potential / mV', 'mV', 16.9),
  ('CCCCCCCCC(=O)N[C@H](C(=O)N[C@H](C(=O)N[C@H](C(=O)N[C@@H](C)C(=O)N[C@@H](C)C(=O)N[C@@H](C)C(=O)N[C@@H](CCCCN)C(=O)N[C@@H](CCCCN)C(=O)N[C@@H](CCCCN)C(N)=O)C(C)C)C(C)C)C(C)C [Pat8] (Nonanoyl-VVVAAAKKK-NH2)', 'Zeta-Potential / mV', 'mV', 13.5),
  ('CCCCCCCCCCCCCCCC(=O)N[C@@H](CC(C)C)C(=O)N[C@@H](CC(N)=O)C(=O)NCC(=O)NCC(=O)N[C@H](C(=O)N[C@@H](CCCCN)C(=O)N[C@@H](CCCCN)C(N)=O)C(C)C [Pat19, C16-LNGGVKK-NH2] (Palmitoyl-LNGGVKK-NH2)', 'Zeta-Potential / mV', 'mV', 19.4);
